System: HeLa Kyoto;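 note: HeLa Kyoto cells arrested at G1/S by double thymidine block, proteins quantified by TMT10plex mass spectrometry in mild NP-40 versus SDS extracts, three biological replicates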
Assay: solubility in G1/S (NP-40 vs SDS abundance) (log2 ratio); higher = more soluble
Conditions: cell cycle stage: G1/S
Endpoint label: solubility in G1/S (log2)
Would you mind answering with just the numeric figure?

Sure, the documented solubility in G1/S (log2) for MALLRKINQVLLFLLIVTLCVILYKKVHKGTVPKNDADDESETPEELEEEIPVVICAAAGRMGATMAAINSIYSNTDANILFYVVGLRNTLTRIRKWIEHSKLREINFKIVEFNPMVLKGKIRPDSSRPELLQPLNFVRFYLPLLIHQHEKVIYLDDDVIVQGDIQELYDTTLALGHAAAFSDDCDLPSAQDINRLVGLQNTYMGYLDYRKKAIKDLGISPSTCSFNPGVIVANMTEWKHQRITKQLEKWMQKNVEENLYSSSLGGGVATSPMLIVFHGKYSTINPLWHIRHLGWNPDARYSEHFLQEAKLLHWNGRHKPWDFPSVHNDLWESWFVPDPAGIFKLNHHS [GLT8D2] is 0.233

Consider MVLLESEQFLTELTRLFQKCRTSGSVYITLKKYDGRTKPIPKKGTVEGFEPADNKCLLRATDGKKKISTVVSSKEVNKFQMAYSNLLRANMDGLKKRDKKNKTKKTKAAAAAAAAAPAAAATAPTTAATTAATAAQ [SRP14] . Its measured solubility in G1/S (log2) is 0.1

Recorded solubility in G1/S (log2) (sequence MALPFRKDLEKYKDLDEDELLGNLSETELKQLETVLDDLDPENALLPAGFRQKNQTSKSTTGPFDREHLLSYLEKEALEHKDREDYVPYTGEKKGKIFIPKQKPVQTFTEEKVSLDPELEEALTSASDTELCDLAAILGMHNLITNTKFCNIMGSSNGVDQEHFSNVVKGEKILPVFDEPPNPTNVEESLKRTKENDAHLVEVNLNNIKNIPIPTLKDFAKALETNTHVKCFSLAATRSNDPVATAFAEMLKVNKTLKSLNVESNFITGVGILALIDALRDNETLAELKIDNQRQQLGTAVELEMAKMLEENTNILKFGYQFTQQGPRTRAANAITKNNDLVRKRRVEGDHQ [TMOD3] ): 0.293

Query MSLRRHIGNPEYLMKRIPQNPRYQHIKSRLDTGNSMTKYTEKLEEIKKNYRYKKDELFKRLKVTTFAQLIIQVASLSDQTLEVTAEEIQRLEDNDSAASDPDAETTARTNGKGNPGEQSPSPEQFINNAGAGDSSRSTLQSVISGVGELDLDKGPVKKAEPHTKDKPYPDCPFLLLDVRDRDSYQQCHIVGAYSYPIATLSRTMNPYSNDILEYKNAHGKIIILYDDDERLASQAATTMCERGFENLFMLSGGLKVLAQKFPEGLITGSLPASCQQALPPGSARKRSSPKGPPLPAENKWRFTPEDLKKIEYYLEEEQGPADHPSRLNQANSSGRESKVPGARSAQNLPGGGPASHSNPRSLSSGHLQGKPWK [CEP41] yields solubility in G1/S (log2) of 0.311

MSDCYTELEKAVIVLVENFYKYVSKYSLVKNKISKSSFREMLQKELNHMLSDTGNRKAADKLIQNLDANHDGRISFDEYWTLIGGITGPIAKLIHEQEQQSSS [S100A16] has a reported solubility in G1/S (log2) of -0.172

solubility in G1/S (log2) for MPKCPKCNKEVYFAERVTSLGKDWHRPCLKCEKCGKTLTSGGHAEHEGKPYCNHPCYAAMFGPKGFGRGGAESHTFK [CRIP1] is -0.362
